# TARGET SYSTEM: T1, recombinant cyno Tie2 extracellular domain (cynomolgus monkey, UniProt Q02763 23-748 (human entry))
# T1 construct: also called Recombinant cyno Tie2 ECD; cy Tie2
# T1 chain: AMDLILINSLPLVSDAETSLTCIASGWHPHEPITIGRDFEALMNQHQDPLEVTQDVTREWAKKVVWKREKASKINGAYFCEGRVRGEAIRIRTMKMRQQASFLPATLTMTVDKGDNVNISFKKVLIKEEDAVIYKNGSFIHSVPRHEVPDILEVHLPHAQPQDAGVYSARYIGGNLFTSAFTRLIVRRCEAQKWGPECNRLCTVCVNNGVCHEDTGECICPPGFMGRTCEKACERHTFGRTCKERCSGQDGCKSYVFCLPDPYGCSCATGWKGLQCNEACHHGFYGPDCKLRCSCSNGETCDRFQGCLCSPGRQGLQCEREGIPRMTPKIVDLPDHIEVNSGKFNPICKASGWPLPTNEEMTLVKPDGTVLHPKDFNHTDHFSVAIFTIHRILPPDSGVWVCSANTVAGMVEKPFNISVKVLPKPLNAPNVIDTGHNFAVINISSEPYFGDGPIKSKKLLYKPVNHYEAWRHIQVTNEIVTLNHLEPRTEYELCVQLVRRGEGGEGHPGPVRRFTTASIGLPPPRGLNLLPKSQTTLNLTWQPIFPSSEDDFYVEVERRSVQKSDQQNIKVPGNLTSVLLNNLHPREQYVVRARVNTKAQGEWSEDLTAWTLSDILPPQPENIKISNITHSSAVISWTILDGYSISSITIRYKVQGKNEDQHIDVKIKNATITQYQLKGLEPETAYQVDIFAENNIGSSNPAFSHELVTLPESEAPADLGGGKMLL
# TEST SUMMARY: SPR, IgG captured, 37C
# Method: A human antibody capture chip was prepared using a Series S CM5 chip (GE Life Sciences), a human antibody capture kit (GE Life Sciences) and an amine coupling kit (GE Life Sciences). […] Binding to 300 nM and 1500 nM recombinant Tie2 was analyzed at 37° C. using a Single Cycle Kinetics method with a contact time of 60 seconds, a dissociation time of 120 seconds and a flow rate of 50 μl/min. […]
Entries annotated with measured Normalized Binding Signal, 1500 nM
Please respond with just the number, no unit label.

{"columns": ["BINDER", "OBSERVED RESULT"],
 "data": [
  ["Tie2.1.M100cL (antibody, IgG1, name in Kabat numbering, V domains shown, hIgG1) VH: EVQLVESGGGLVQPGGSLRLSCAASGFTFSNTDISWVRQAPGKGLEWVGRISPSDGNTYYADSVKGRFTISADTSKNTAYLQMNSLRAEDTAVYYCARRTRWASWALDYWGQGTLVTVSS VL: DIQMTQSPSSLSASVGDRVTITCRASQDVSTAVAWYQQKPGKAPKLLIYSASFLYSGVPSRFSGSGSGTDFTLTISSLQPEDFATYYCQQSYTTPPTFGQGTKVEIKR", 0.39],
  ["Tie2.1.M100cF (antibody, IgG1, V domains shown, hIgG1 in the SPR and binning assays) VH: EVQLVESGGGLVQPGGSLRLSCAASGFTFSNTDISWVRQAPGKGLEWVGRISPSDGNTYYADSVKGRFTISADTSKNTAYLQMNSLRAEDTAVYYCARRTRWASWAFDYWGQGTLVTVSS VL: DIQMTQSPSSLSASVGDRVTITCRASQDVSTAVAWYQQKPGKAPKLLIYSASFLYSGVPSRFSGSGSGTDFTLTISSLQPEDFATYYCQQSYTTPPTFGQGTKVEIK", 0.46]
]}

Task: Please give the measured Normalized Binding Signal, 1500 nM for this binder: Tie2.1.M100cR (antibody, IgG1, name in Kabat numbering, V domains shown, hIgG1) VH: EVQLVESGGGLVQPGGSLRLSCAASGFTFSNTDISWVRQAPGKGLEWVGRISPSDGNTYYADSVKGRFTISADTSKNTAYLQMNSLRAEDTAVYYCARRTRWASWARDYWGQGTLVTVSS VL: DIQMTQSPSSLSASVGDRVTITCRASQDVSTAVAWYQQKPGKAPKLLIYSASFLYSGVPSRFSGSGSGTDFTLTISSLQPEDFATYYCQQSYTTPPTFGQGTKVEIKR
Output: 0.2
